target: Mast/stem cell growth factor receptor Kit (Homo sapiens) (UniProt P10721); conditions: at 0.1 µM;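 further: values are mean inhibition of KIT, from the GSK PKIS dataset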
Sequence (P10721 whole entry): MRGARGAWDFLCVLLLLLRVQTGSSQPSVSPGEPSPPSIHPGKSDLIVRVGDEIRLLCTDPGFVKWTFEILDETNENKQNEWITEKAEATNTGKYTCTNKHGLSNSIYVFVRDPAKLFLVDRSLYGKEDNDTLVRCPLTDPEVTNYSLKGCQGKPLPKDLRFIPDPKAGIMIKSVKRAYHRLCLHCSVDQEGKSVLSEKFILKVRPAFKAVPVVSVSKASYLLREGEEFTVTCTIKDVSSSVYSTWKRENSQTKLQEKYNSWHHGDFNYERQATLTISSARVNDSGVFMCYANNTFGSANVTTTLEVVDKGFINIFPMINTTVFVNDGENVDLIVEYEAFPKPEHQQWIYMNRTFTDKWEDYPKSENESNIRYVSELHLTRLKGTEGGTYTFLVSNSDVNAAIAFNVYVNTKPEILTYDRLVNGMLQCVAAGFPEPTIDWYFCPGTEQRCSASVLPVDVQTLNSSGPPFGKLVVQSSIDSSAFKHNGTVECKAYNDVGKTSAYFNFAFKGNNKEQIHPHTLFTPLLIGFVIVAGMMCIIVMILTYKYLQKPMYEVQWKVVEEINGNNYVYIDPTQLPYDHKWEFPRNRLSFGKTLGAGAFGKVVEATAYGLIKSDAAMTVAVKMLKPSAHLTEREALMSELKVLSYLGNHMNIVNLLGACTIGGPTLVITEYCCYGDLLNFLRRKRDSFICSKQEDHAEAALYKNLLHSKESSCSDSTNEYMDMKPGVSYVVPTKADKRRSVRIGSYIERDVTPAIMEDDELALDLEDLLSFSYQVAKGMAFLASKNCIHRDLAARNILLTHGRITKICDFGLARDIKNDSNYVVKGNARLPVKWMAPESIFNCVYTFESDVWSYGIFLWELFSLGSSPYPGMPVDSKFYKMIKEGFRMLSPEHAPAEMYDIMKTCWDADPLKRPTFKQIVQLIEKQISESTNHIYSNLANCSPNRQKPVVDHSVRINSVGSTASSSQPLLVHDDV
experimental-readout: inhibition (%)

1. COc1cc2ncn(-c3cc(OCc4ccccc4C(F)(F)F)c(C(C)=O)s3)c2cc1OC    3.46
2. COc1cc(Nc2ncc(-c3ccccc3)o2)cc(OC)c1OC    85.4
3. COc1ccc2cc(-c3c(-c4ccncc4)nc(-c4ccc([S+](C)[O-])cc4C)n3C)ccc2c1 (stereo not given)    -0.44
4. COc1cc(Nc2ncc3c(C)nc(-c4cccc(C(F)(F)F)c4)n3n2)cc(OC)c1OC    11.1
5. NS(=O)(=O)c1ccc(N/N=C2\C(=O)Nc3ccc(C(=O)NCCCn4ccnc4)cc32)cc1    4.8
6. C#Cc1cccc(Nc2ncnc3ccc(OCCCCNCCS(C)(=O)=O)cc23)c1    4.93
7. CCC(=O)Nc1ccc(C)c(-c2ccc(C(=O)NCC3CC3)cc2)c1    4.93
8. O=C1Nc2ccc(I)cc2C1=Cc1cc(Br)c(O)c(Br)c1    5.45
9. O=C(Nc1n[nH]c2cc(-c3ccccc3)ccc12)C1CC1    3.52
10. Fc1ccc(-c2ncn(C3CCNCC3)c2-c2ccnc(Oc3ccc4c(c3)OCO4)n2)cc1    7.99
11. CNC(=O)c1cncc(/C=C/c2c(C)cccc2C)c1    10.7
12. O=C1NC(=O)C(c2cccc(Cl)c2)=C1Nc1ccc(Cl)c(C(=O)O)c1    6.54
13. Fc1ccc(-c2c(-c3ccncc3)nc3n2CCS3)cc1    3.82
14. NC(=O)c1cc(-c2ccc(F)cc2)cc(-c2ccncc2)c1N    11.9
15. Clc1ccc(CNc2nccc(-c3cnn4ncccc34)n2)cc1    5
16. COc1cc2ncn(-c3cc(OCc4cccs4)c(C(N)=O)s3)c2cc1OC    1.96
17. Fc1ccc(-c2ncn(C3CCNCC3)c2-c2ccnc(Oc3ccc(F)c(F)c3)n2)cc1    1.92
18. C[C@@H](Oc1cc(-n2cnc3ccc(OC4CCN(C)CC4)cc32)sc1C(N)=O)c1ccccc1Cl    5.05
19. COc1ccc2ncn(-c3cc(O[C@H](C)c4ccccc4Cl)c(C(N)=O)s3)c2c1    4.64
20. O=C(Nc1ccc(Oc2ccc3[nH]c(NC(=O)c4ccccc4)nc3c2)cc1)Nc1cc(C(F)(F)F)ccc1F    10.4
21. C[C@@H](Oc1cc(-n2cnc3ccc(OCC4CCN(C)CC4)cc32)sc1C(N)=O)c1ccccc1Cl    5.23
22. COC(=O)Nc1nc2ccc(Sc3ccc(NC(=O)Nc4cc(C(F)(F)F)ccc4F)cc3)cc2[nH]1    1.63
23. NCc1ccc(-n2c(-c3nonc3N)nc3cnccc32)cc1    5.81
24. COc1ccc(-c2ccc3c(NC(=O)C4CC4)n[nH]c3n2)cc1    0.69
25. c1ccc(Oc2ccc(Nc3ncc(-c4ccccc4)o3)cc2)cc1    3.26
26. FC(F)(F)c1cccc(Nc2nccc(-c3cnn4nc(-c5ccccc5)ccc34)n2)c1    5.78
27. NC(=O)Cc1ccccc1Oc1nccc(-c2c(-c3ccc(F)cc3)ncn2C2CCNCC2)n1    1.71
28. CN(C)CCOc1ccc(-c2cc(-c3ccc4c(c3)CCC4=NO)c(-c3ccncc3)o2)cc1    -2.06
29. COc1cc(N2CCN(C(C)C)CC2)ccc1Nc1nc(Nc2ccc(F)cc2C(=O)NC[C@@H](O)CO)c2cc[nH]c2n1    4.46
30. Cc1ccc(C(=O)NC(C)C)cc1-c1ccc(C(=O)NCC2CC2)cc1    -2.99
31. CCS(=O)(=O)c1ccc(OC)c(Nc2ncc(-c3ccccc3Cl)o2)c1    17.3
32. Fc1ccc(-c2ncn(C3CCNCC3)c2-c2ccnc(Oc3ccc(Oc4ccccc4)cc3)n2)cc1    2.94
33. Fc1ccc(-c2ncn(CCCN3CCOCC3)c2-c2ccncc2)cc1    -3.23
34. Cc1nnc(-c2ccc(C)c(-c3ccc(C(=O)NCc4ccc(Cl)cc4)cc3)c2)o1    4.95
35. CN1CCN(CCCNc2nc3ccc(Oc4ccc(NC(=O)Nc5cc(C(F)(F)F)ccc5F)cc4)cc3[nH]2)CC1    48.5

* * *

Recorded inhibition values for a group of compounds are listed next.
target: ALK tyrosine kinase receptor (Homo sapiens); conditions: at 0.1 µM
Description: GSK_PKIS: ALK mean inhibition at 0.1 uM [Nanosyn]
experimental-readout: inhibition (%)

1. O=C(NCC1CC1)c1ccc(-c2cccc(C(=O)NC3CC3)c2)cc1    1.84
2. COc1cc(N2CCN(C(C)C)CC2)ccc1Nc1nc(Nc2ccc(F)cc2C(=O)NC[C@@H](O)CO)c2cc[nH]c2n1    82.6
3. COc1cc(Nc2ncc3c(C)nc(-c4cccc(C(F)(F)F)c4)n3n2)cc(OC)c1OC    2.22
4. C/C(Nc1ccc(S(N)(=O)=O)cc1)=C1/C(=O)Nc2ccccc21    -1.33
5. C[C@@H](Oc1cc(-n2cnc3ccc(OCC4CCN(C)CC4)cc32)sc1C(N)=O)c1ccccc1Cl    8.57
6. COc1cc2ncn(-c3cc(OCCc4ccccc4)c(C(N)=O)s3)c2cc1OC    1.95
7. CN(C)CCCNc1nccc(-c2c(-c3ccc(F)cc3)nn3cc(C(F)(F)F)ccc23)n1    -2.64
8. NC(=O)c1cc(-c2ccc(F)cc2)cc(-c2ccncc2)c1N    1.8
9. Fc1ccc(-c2c(-c3ccncc3)nc3n2CCS3)cc1    -2.59
10. NC(=O)c1cc(-c2ccncc2)cc(-c2ccccc2)c1N    3.8

* * *

Molecular target: Mitogen-activated protein kinase 13 (Homo sapiens) (UniProt O15264);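 further: mean inhibition of p38delta, screened as part of the GSK PKIS kinase inhibitor set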
Sequence (whole entry): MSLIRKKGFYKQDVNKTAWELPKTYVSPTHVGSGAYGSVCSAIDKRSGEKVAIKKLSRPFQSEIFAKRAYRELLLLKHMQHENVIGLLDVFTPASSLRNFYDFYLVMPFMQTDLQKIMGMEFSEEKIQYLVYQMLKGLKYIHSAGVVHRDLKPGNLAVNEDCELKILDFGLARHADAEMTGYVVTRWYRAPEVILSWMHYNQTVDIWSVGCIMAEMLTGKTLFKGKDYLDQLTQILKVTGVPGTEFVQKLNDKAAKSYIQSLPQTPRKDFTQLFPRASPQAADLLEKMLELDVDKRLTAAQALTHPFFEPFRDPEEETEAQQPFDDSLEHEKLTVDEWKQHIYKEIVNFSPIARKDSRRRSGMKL
Conditions: at 1 µM
experimental-readout: inhibition

1. CN(C)c1ccc2c(c1)/C(=C/Nc1ccc(S(N)(=O)=O)cc1)C(=O)N2    1.98%
2. O=C(Nc1n[nH]c2nc(-c3ccc(O)cc3)c(Br)cc12)C1CC1    32.6%
3. COc1ccc2cc(-c3c(-c4ccncc4)nc(-c4ccc(S(C)(=O)=O)cc4C)n3C)ccc2c1    5.04%

* * *

Each entry below carries its reported inhibition.
biological target: MAP/microtubule affinity-regulating kinase 4 (Homo sapiens) (UniProt Q96L34); settings: at 1 µM;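 further: reported value is a mean MARK4 inhibition at 1 µM, taken from the GSK PKIS screening set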
Sequence (Q96L34 whole entry): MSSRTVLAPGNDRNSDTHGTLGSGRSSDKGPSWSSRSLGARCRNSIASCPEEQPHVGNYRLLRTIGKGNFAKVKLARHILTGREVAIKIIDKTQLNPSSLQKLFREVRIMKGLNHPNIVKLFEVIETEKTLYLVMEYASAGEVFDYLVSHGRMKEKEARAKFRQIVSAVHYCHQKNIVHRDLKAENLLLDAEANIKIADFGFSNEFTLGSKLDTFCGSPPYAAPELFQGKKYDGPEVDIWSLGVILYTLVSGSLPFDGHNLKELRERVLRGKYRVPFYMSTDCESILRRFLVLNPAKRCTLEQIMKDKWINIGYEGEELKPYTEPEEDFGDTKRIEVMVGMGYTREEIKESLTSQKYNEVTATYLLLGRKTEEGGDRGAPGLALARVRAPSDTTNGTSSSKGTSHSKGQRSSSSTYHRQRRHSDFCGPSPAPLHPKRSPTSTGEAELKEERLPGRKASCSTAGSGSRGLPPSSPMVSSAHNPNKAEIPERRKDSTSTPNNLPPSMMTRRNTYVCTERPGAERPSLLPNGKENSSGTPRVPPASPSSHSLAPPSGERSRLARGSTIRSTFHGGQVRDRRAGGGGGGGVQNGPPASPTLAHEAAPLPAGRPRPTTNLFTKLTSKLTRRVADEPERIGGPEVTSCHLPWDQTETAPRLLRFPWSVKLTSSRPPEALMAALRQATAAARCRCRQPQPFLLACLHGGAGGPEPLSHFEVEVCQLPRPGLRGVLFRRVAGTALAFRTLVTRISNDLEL
experimental-readout: inhibition (%)

1) O=C1Nc2ccc(I)cc2C1=Cc1cc(Br)c(O)c(Br)c1    2.32
2) Nc1nccc(-c2c(-c3ccc(F)cc3)ncn2C2CCC(O)CC2)n1 (stereo not given)    1.28
3) N#Cc1ccc(Oc2nccc(-c3c(-c4ccc(F)cc4)ncn3C3CCNCC3)n2)cc1    2.46
4) O=C(Nc1n[nH]c2cc(-c3cc(F)ccc3F)ccc12)C1CC1    5.44
5) NCc1ccc(-n2c(-c3nonc3N)nc3cnccc32)cc1    13.3
6) Fc1ccc(-c2ncn(C3CCNCC3)c2-c2ccnc(Oc3ccc(F)c(F)c3)n2)cc1    4.5
7) CNC(=O)c1cncc(/C=C/c2c(C)cccc2C)c1    1.46
8) O=C(Nc1n[nH]c2cc(-c3ccccc3)ccc12)C1CC1    5.77
9) COC(=O)Nc1nc2ccc(Sc3ccc(NC(=O)Nc4cc(C(F)(F)F)ccc4F)cc3)cc2[nH]1    -0.2
10) NS(=O)(=O)c1ccc(Nc2cc(-c3ccc(O)c(F)c3)n[nH]2)cc1    11.7
11) COc1cc(N2CCN(C(C)C)CC2)ccc1Nc1nc(Nc2ccc(F)cc2C(=O)NC[C@@H](O)CO)c2cc[nH]c2n1    2.9
12) NC(=O)c1ccc(Oc2nccc(-c3c(-c4ccc(F)cc4)ncn3C3CCNCC3)n2)cc1    2.24
13) CN1CCN(CCCNc2nc3ccc(Oc4ccc(NC(=O)Nc5cc(C(F)(F)F)ccc5F)cc4)cc3[nH]2)CC1    2.34
14) C/C(Nc1ccc(S(N)(=O)=O)cc1)=C1/C(=O)Nc2ccccc21    28.2
15) NS(=O)(=O)c1ccc(N/N=C2\C(=O)Nc3ccc(-c4cnco4)cc32)cc1    26.1
16) CS(=O)(=O)CCNCc1cc(-c2cc3c(Nc4ccc(OCc5cccc(F)c5)c(Cl)c4)ncnc3s2)cs1    1.6
17) O=C(NCC1CC1)c1ccc(-c2cccc(C(=O)NC3CC3)c2)cc1    0.47
18) NS(=O)(=O)c1ccc(N/N=C2\C(=O)Nc3ccc(C(=O)NCCCn4ccnc4)cc32)cc1    14.6
19) CS(=O)(=O)CCNCc1ccc(-c2ccc3ncnc(Nc4ccc(OCc5ccccc5)c(Br)c4)c3c2)o1    2.37
20) CCc1cccc(CC)c1/C=C/c1cncc(C(=O)NC)c1    1.03
